Test: protein stability index of a GFP-peptide fusion (yeast GPS) (PSI 1-4); higher = more stable; sorted into four equal gates, so the index is relative within each strain
Conditions: doa10∆
Consider the following sequences; for each one, report its protein stability index.
// no unit, no text: just the number

Given KSVEKTMIKKTTLVTRR [SMC3] , state its recorded protein stability index.
3.17

# lookup: protein stability index of QFAPAFLNTPNNNINEN [SSN2]
2.92

Look up protein stability index: IESIRSCKDSQLKWAQN [YIL149C/MLP2]
2.78

Entry under review: VEESGEHVILGNGELYM [SNU114] . Reported protein stability index?
3.31

protein stability index lookup needed for DKINQLSVVKYLLASLK [RPN9] , thanks.
2.02

I have this sequence here, QGIFKNSSNYFGELQFA [AAR2] , and I need its recorded protein stability index.
2.36

Param item = LPKIKTVRKSIACVLTV [RPL35A] ; retrieve measured protein stability index.
1.98

// returns reported protein stability index for input AKLSDTLIIDQVRKDLG [NUT1]
2.83

So what does the record say about protein stability index for INNNINIPQQQQMQPPN [GAL11] ?
2.58

Reported protein stability index, sequence LRSRLQQQQQQQQQTSP [SNF5] : ____
2.58

What protein stability index value was documented for this sequence, ITASTLLYADSLTAEAM [CYT1] ?
2.1

Using the record for KKFVSQIQKNVDLLQFP [POP3] , report its protein stability index.
2.65

Requested field: protein stability index. Item: RYKPGTVALREIRRFQK [HHT1]
3.19

What measured protein stability index goes with EEEDSILSLEQSSRVVS [YCS4] ?
3.11

Request the reported protein stability index associated with KAAFIRVNGSEFVHKYL [RPT3]
2.22

Look at this sequence and give its reported protein stability index. KMDFSSKEGQYKAKIKE [YIL149C/MLP2]
3.2

Can you share its protein stability index? I mean this sequence: REIESLIAEETNNKKLL [SMC3]
2.78

Form field: reported protein stability index of FIRVIGSELVQKYVGEG [RPT1]
2.59

Please report the recorded protein stability index for AAPAATSAASGDAAPAE [RPP0] .
2.6

Bench note: what protein stability index did YYNEEGIHILLYSGLII [RPC82] show?
2.01

Looking for the measured protein stability index of AVFKIVLQPLLPRELPK [SNU114] , can you help?
2.05

Recorded protein stability index for EIILKLCRNPLTSGLLY [YJL039C/NUP192] , please?
2.21

Fill in: protein stability index of NFKDMSHVNKYGLIRGL [PRP8] is ___
2

Name the recorded protein stability index for NSEYLKRRVTNLEFNYT [SMC2] .
2.38

What does the data say about its protein stability index? Entry: KKFIEISDVKIQVAAFI [PRP8]
2.84

If you can, please state the reported protein stability index value of NKVCRIEAASTTQDQCK [RPB8] .
2.66

Requested field: protein stability index. Item: LIFIACNDEDKDLETLY [ECM29]
3.11

// protein stability index lookup, key: NSSNLSYNNTGISDDEN [RRP4]
2.53

Any idea what protein stability index was measured for VDNTTEQSNSRKRTRSE [YCG1] ?
3.27

What value of protein stability index has been reported for the following sequence? IPKQLLDDEKIFSQTTN [YJL039C/NUP192]
2.55

Consider the sequence shown here: LAVLALVIVKKGEQELE [RPS6A] What is its recorded protein stability index?
1.61

So what does the record say about protein stability index for RNEKRMFLEFQSTQTDL [SMC2] ?
2.53

Which protein stability index is listed for TSVQEKELMLQSKKLIE [YIL149C/MLP2] ?
2.65

Fill in the blank: the reported protein stability index of VTVHSLTGEATANALPL [RPL4A] is ____.
2.75

Return reported protein stability index; argument: TGKITKMFQDIRLSKIL [CDC53]
2.73

Item LRYYKNIWLNNKIINWE [NUT1] has what recorded protein stability index?
3.56

Quick one: protein stability index of PRFNRENKVSPADAAKK [RPS26A] ?
3.45

Which protein stability index value is on record for IGESARIIREMFAYAKE [RPT4] ?
2.31

State the recorded protein stability index for this entry: LGHKELKVRKGHIAKLM [RPB2]
2.54

Give the measured protein stability index of RHLVNRGREEAASFKKL [PRE10] .
3.07

Recorded protein stability index for SQFLKRVHANLQCISQI [SNF11] , please?
1.17

If you can, please state the reported protein stability index value of NKEGTLEQREQNENLPS [SSN2] .
3.02

Item KTFEIKEIKTNEYVIKT [YMR129W/POM152] has what recorded protein stability index?
2.58

Looking for the measured protein stability index of RLKDVEWVKLHRLLQRA [RMP1] , can you help?
3.16

Returns the measured protein stability index for the input sequence. Input: ALRALQENGTIFRGSLI [YDL088C/ASM4]
2.02

Recorded protein stability index for AMNDKDLTMGQVGERIK [RPO21] , please?
3.31

protein stability index for TMRRQKLTILQEGIEAI [RET1] ?
2.39

# lookup: protein stability index of ADDHASVQINVAKVDEE [RPS21A]
3.26

Returns the measured protein stability index for the input sequence. Input: QSSRVVSLSQLLFIVGQ [YCS4]
1.75

Could you share which protein stability index value was measured for SNDERIVKRLYEYGAVS [BRR2] ?
2.71

Quick one: protein stability index for LGSKKELGISLEHPYGK [SNU114] ?
3.08

What value of protein stability index has been recorded for this entry: KWPEYVRVQRQKKILSI [RPL8A]
1.2

Which protein stability index is reported for this sequence? SKIFRFQNSKSASLFKQ [RPL24A]
2.63

Which protein stability index is listed for DSIPYPQIVKLFDISRE [ECM29] ?
1.65

Need protein stability index, item IWLLSYIQYLGHLPEVS [ECM29]
1.62

GET /values?readout=protein stability index&item= EVIFSFEGTPPFSLTYV [YMR129W/POM152]
2.09

Bench note: what protein stability index did ATQMTLNTFHFAGVASK [RPO21] show?
1.89

State the recorded protein stability index for this entry: NVLFLRLFNNVKIHSQE [SRP72]
2.18

# protein stability index lookup, item LEEQQQLEDESSRLEFV [YML103C/NUP188]
3.43
